# Protocol Details: Cytotoxicity against human HuhET cells by [3H]thymidine incorporation assay
# Format: cell-based
Attribute Measured: CC50

[
  {
    "Substance Smiles": "COC(=O)N[C@H](C(=O)N1C[C@@H](C)C[C@H]1c1ncc(-c2ccc(-c3ccc(-c4cc5[nH]c([C@@H]6C[C@H](C)CN6C(=O)[C@@H](NC(=O)OC)C(C)C)nc5s4)cc3)c(C)c2)[nH]1)C(C)C",
    "Reported Result": "> 20 µM"
  },
  {
    "Substance Smiles": "COC(=O)N[C@H](C(=O)N1C[C@@H](C)C[C@H]1c1nc2cc(-c3ccc(-c4ccc(-c5cc6[nH]c([C@@H]7C[C@H](C)CN7C(=O)[C@@H](NC(=O)OC)C(C)C)nc6s5)cc4)cc3)ccc2[nH]1)C(C)C",
    "Reported Result": "> 20 µM"
  },
  {
    "Substance Smiles": "COC(=O)N[C@H](C(=O)N1C[C@@H](C)C[C@H]1c1ncc(-c2ccc(-c3ccc(-c4cc5[nH]c([C@@H]6C[C@H](C)CN6C(=O)[C@@H](NC(=O)OC)C(C)C)nc5s4)cc3)s2)[nH]1)C(C)C",
    "Reported Result": "18.3 µM"
  },
  {
    "Substance Smiles": "COC(=O)N[C@H](C(=O)N1C[C@@H](C)C[C@H]1c1ncc(-c2ccc(-c3ccc(-c4cc5[nH]c([C@@H]6C[C@H](C)CN6C(=O)[C@@H](NC(=O)OC)C(C)C)nc5s4)cc3)cc2)[nH]1)C(C)C",
    "Reported Result": "> 20 µM"
  }
]

Kindly consider the entry below.
Q: Provide measured CC50 value, entry: "COC(=O)N[C@H](C(=O)N1C[C@@H](C)C[C@H]1c1ncc(C#Cc2ccc(-c3cc4[nH]c([C@@H]5C[C@H](C)CN5C(=O)[C@@H](NC(=O)OC)C(C)C)nc4s3)cc2)[nH]1)C(C)C"
Ans: > 20 µM

---

# Protocol Details: Oral bioavailability in rat at 3 mg/kg
# Type: ADME, organism-based
# Setup Conditions: in vivo
// bioavailability lookup, one value per entry
Dear colleague, please return just the value in %, with no unit written.

Use these answered entries as a reference point.
[
  {
    "Substance Smiles": "COC(=O)N[C@H](C(=O)N1C[C@@H](C)C[C@H]1c1nc2cc(/C=C/c3ccc(-c4cc5[nH]c([C@@H]6C[C@H](C)CN6C(=O)[C@@H](NC(=O)OC)C(C)C)nc5s4)cc3)ccc2[nH]1)C(C)C",
    "bioavailability, %": 14.1
  },
  {
    "Substance Smiles": "COC(=O)N[C@H](C(=O)N1C[C@@H](C)C[C@H]1c1ncc(-c2ccc(-c3ccc(-c4cc5[nH]c([C@@H]6C[C@H](C)CN6C(=O)[C@@H](NC(=O)OC)C(C)C)nc5s4)cc3)cc2)[nH]1)C(C)C",
    "bioavailability, %": 25.6
  },
  {
    "Substance Smiles": "COC(=O)N[C@H](C(=O)N1C[C@@H](C)C[C@H]1c1ncc(-c2cccc(-c3ccc(-c4cc5[nH]c([C@@H]6C[C@H](C)CN6C(=O)[C@@H](NC(=O)OC)C(C)C)nc5s4)cc3)c2)[nH]1)C(C)C",
    "bioavailability, %": 16
  }
]

Kindly consider the entry below.
Q: Provide measured bioavailability value, entry: "COC(=O)N[C@H](C(=O)N1C[C@@H](C)C[C@H]1c1ncc(-c2cc3sc(-c4ccc(-c5cc6[nH]c([C@@H]7C[C@H](C)CN7C(=O)[C@@H](NC(=O)OC)C(C)C)nc6s5)cc4)cc3s2)[nH]1)C(C)C"
Ans: 6.7

---

# Protocol Details: Half life in rat at 3 mg/kg, po
# Type: ADME, organism-based
# Set-up: dose 3 mg/kg, route oral
# Setup Conditions: in vivo
Attribute Measured: half-life
Report field: quantity (unit follows the number).

[
  {
    "Substance Smiles": "COC(=O)N[C@H](C(=O)N1C[C@@H](C)C[C@H]1c1ncc(-c2ccc(-c3ccc(-c4cc5[nH]c([C@@H]6C[C@H](C)CN6C(=O)[C@@H](NC(=O)OC)C(C)C)nc5s4)cc3)cc2)[nH]1)C(C)C",
    "Reported Result": "8.3 h"
  },
  {
    "Substance Smiles": "COC(=O)N[C@H](C(=O)N1C[C@@H](C)C[C@H]1c1nc2cc(/C=C/c3ccc(-c4cc5[nH]c([C@@H]6C[C@H](C)CN6C(=O)[C@@H](NC(=O)OC)C(C)C)nc5s4)cc3)ccc2[nH]1)C(C)C",
    "Reported Result": "5 h"
  },
  {
    "Substance Smiles": "COC(=O)N[C@H](C(=O)N1C[C@@H](C)C[C@H]1c1ncc(-c2cc3sc(-c4ccc(-c5cc6[nH]c([C@@H]7C[C@H](C)CN7C(=O)[C@@H](NC(=O)OC)C(C)C)nc6s5)cc4)cc3s2)[nH]1)C(C)C",
    "Reported Result": "10.8 h"
  }
]

Q: Provide measured half-life value, entry: "COC(=O)N[C@H](C(=O)N1C[C@@H](C)C[C@H]1c1ncc(-c2cccc(-c3ccc(-c4cc5[nH]c([C@@H]6C[C@H](C)CN6C(=O)[C@@H](NC(=O)OC)C(C)C)nc5s4)cc3)c2)[nH]1)C(C)C"
Ans: 5.1 h

---

# Protocol Details: Clearance in rat at 3 mg/kg, iv
# Assay type: ADME, organism-based
# Parameters: dose 3 mg/kg, route intravenous
# Setup Conditions: in vivo
Attribute Measured: clearance (mL/min/kg)
Dear colleague, please return just the value in mL/min/kg, with no unit written.

[
  {
    "Substance Smiles": "COC(=O)N[C@H](C(=O)N1C[C@@H](C)C[C@H]1c1ncc(-c2cccc(-c3ccc(-c4cc5[nH]c([C@@H]6C[C@H](C)CN6C(=O)[C@@H](NC(=O)OC)C(C)C)nc5s4)cc3)c2)[nH]1)C(C)C",
    "Attribute Measured": "clearance",
    "Reported Result": 13.5
  }
]

Q: Provide measured clearance value, entry: "COC(=O)N[C@H](C(=O)N1C[C@@H](C)C[C@H]1c1nc2cc(/C=C/c3ccc(-c4cc5[nH]c([C@@H]6C[C@H](C)CN6C(=O)[C@@H](NC(=O)OC)C(C)C)nc5s4)cc3)ccc2[nH]1)C(C)C"
Ans: 6

Q: Provide measured clearance value, entry: "COC(=O)N[C@H](C(=O)N1C[C@@H](C)C[C@H]1c1ncc(-c2cc3sc(-c4ccc(-c5cc6[nH]c([C@@H]7C[C@H](C)CN7C(=O)[C@@H](NC(=O)OC)C(C)C)nc6s5)cc4)cc3s2)[nH]1)C(C)C"
Ans: 5.1

Q: Provide measured clearance value, entry: "COC(=O)N[C@H](C(=O)N1C[C@@H](C)C[C@H]1c1ncc(-c2ccc(-c3ccc(-c4cc5[nH]c([C@@H]6C[C@H](C)CN6C(=O)[C@@H](NC(=O)OC)C(C)C)nc5s4)cc3)cc2)[nH]1)C(C)C"
Ans: 5.3

---

# Protocol Details: Half life in rat at 3 mg/kg, iv
# Assay type: ADME, organism-based
# Design: dose 3 mg/kg, route intravenous
# Setup Conditions: in vivo
Attribute Measured: half-life

Use these answered entries as a reference point.
[
  {
    "Substance Smiles": "COC(=O)N[C@H](C(=O)N1C[C@@H](C)C[C@H]1c1ncc(-c2ccc(-c3ccc(-c4cc5[nH]c([C@@H]6C[C@H](C)CN6C(=O)[C@@H](NC(=O)OC)C(C)C)nc5s4)cc3)cc2)[nH]1)C(C)C",
    "half-life": "6.1 h"
  },
  {
    "Substance Smiles": "COC(=O)N[C@H](C(=O)N1C[C@@H](C)C[C@H]1c1ncc(-c2cc3sc(-c4ccc(-c5cc6[nH]c([C@@H]7C[C@H](C)CN7C(=O)[C@@H](NC(=O)OC)C(C)C)nc6s5)cc4)cc3s2)[nH]1)C(C)C",
    "half-life": "5.1 h"
  },
  {
    "Substance Smiles": "COC(=O)N[C@H](C(=O)N1C[C@@H](C)C[C@H]1c1ncc(-c2cccc(-c3ccc(-c4cc5[nH]c([C@@H]6C[C@H](C)CN6C(=O)[C@@H](NC(=O)OC)C(C)C)nc5s4)cc3)c2)[nH]1)C(C)C",
    "half-life": "5.1 h"
  }
]

Kindly consider the entry below.
Q: Provide measured half-life value, entry: "COC(=O)N[C@H](C(=O)N1C[C@@H](C)C[C@H]1c1nc2cc(/C=C/c3ccc(-c4cc5[nH]c([C@@H]6C[C@H](C)CN6C(=O)[C@@H](NC(=O)OC)C(C)C)nc5s4)cc3)ccc2[nH]1)C(C)C"
Ans: 6.6 h

---

# Protocol Details: Volume of distribution at steady state in rat at 3 mg/kg, iv
# Assay type: ADME, organism-based
# Design: dose 3 mg/kg, route intravenous
# Setup Conditions: in vivo, read-out: Vdss
Attribute Measured: Vd (L/kg)
Dear colleague, please return just the value in L/kg, with no unit written.

Use these answered entries as a reference point.
[
  {
    "Substance Smiles": "COC(=O)N[C@H](C(=O)N1C[C@@H](C)C[C@H]1c1ncc(-c2cc3sc(-c4ccc(-c5cc6[nH]c([C@@H]7C[C@H](C)CN7C(=O)[C@@H](NC(=O)OC)C(C)C)nc6s5)cc4)cc3s2)[nH]1)C(C)C",
    "Unit Annotation": "L/kg",
    "Vd": 2
  },
  {
    "Substance Smiles": "COC(=O)N[C@H](C(=O)N1C[C@@H](C)C[C@H]1c1ncc(-c2cccc(-c3ccc(-c4cc5[nH]c([C@@H]6C[C@H](C)CN6C(=O)[C@@H](NC(=O)OC)C(C)C)nc5s4)cc3)c2)[nH]1)C(C)C",
    "Unit Annotation": "L/kg",
    "Vd": 4.8
  },
  {
    "Substance Smiles": "COC(=O)N[C@H](C(=O)N1C[C@@H](C)C[C@H]1c1nc2cc(/C=C/c3ccc(-c4cc5[nH]c([C@@H]6C[C@H](C)CN6C(=O)[C@@H](NC(=O)OC)C(C)C)nc5s4)cc3)ccc2[nH]1)C(C)C",
    "Unit Annotation": "L/kg",
    "Vd": 2.7
  }
]

Q: Provide measured Vd value, entry: "COC(=O)N[C@H](C(=O)N1C[C@@H](C)C[C@H]1c1ncc(-c2ccc(-c3ccc(-c4cc5[nH]c([C@@H]6C[C@H](C)CN6C(=O)[C@@H](NC(=O)OC)C(C)C)nc5s4)cc3)cc2)[nH]1)C(C)C"
Ans: 2.4
